Value source: PubChem BioAssay (NCI)

- experiment_description: NCI Yeast Anticancer Drug Screen. Data for the bub3 strain (AID 167)
- cond: S. cerevisiae bub3 mutant strain, at 50.0 µM (retest, dose inferred, filed as 5.0), active compounds read high
The panel holds about 79,000 compounds, 15% with a hit somewhere; the sample as a whole holds those more often.
Label scheme for growth inhibition: lower than 60% is F, 60% and above is T.

>>> df
                                   molecule  discrete_label
0  COc1ccc2nc3cc(Cl)ccc3c(NCCC[N+](C)(C)CCCCCCCCCC[N+](C)(C)CCCNc3c4ccc(Cl)cc4nc4ccc(OC)cc34)c2c1               T
1  O=C1c2cc(Br)ccc2NC1(c1c[nH]c2ccccc12)c1c[nH]c2ccccc12               T
2  COc1ccc(C(=O)C(C(c2ccccc2)N2CCc3ccccc3C2)N2CCc3ccccc3C2)cc1 (centres undefined)               F
3  Cc1cc(C)nc(NS(=O)(=O)c2ccc(Nc3c4ccccc4nc4c(C(=O)NC(CO)(CO)CO)cccc34)cc2)n1               F
4  CN(C)CCOC1OCN(C)CC1(C)C (centres undefined)               F
5  CC(=O)[O-].O=C(N/N=C/c1ccccc1[O-])c1ccccc1.[Zn+2]               T
6  CCOC(=O)C(NC(C)=O)[CH](c1ccccc1)[Sn]([Cl])([c]1ccccc1)[c]1ccccc1 (centres undefined)               F
7  CCCCCCCCCCCCCCCC(=O)NCC[N+](CC)(CC)Cc1ccc(C[N+](CC)(CC)CCNC(=O)CCCCCCCCCCCCCCC)cc1               T

* * *

- experiment_description: NCI Yeast Anticancer Drug Screen. Data for the mec2-1 strain (AID 157)
- cond: S. cerevisiae mec2-1 strain, at 5.0 µM (retest, dose inferred, filed as 0.5)
This is part of a sample that, as a whole, favours compounds with a hit. Of some 79,000 tested, about 15% had one in any assay. The source made the active and inactive calls. No stated cut-off is given here; in the data, active means growth inhibition above about 70%; inactive means the rest.
Possible outcomes: active, inactive

In [3]: df
Out[3]:
                                    molecule  discrete_label
 0         CCC(=O)OC1=C(Br)C(=O)c2ccccc2C1=O        inactive
 1  Cc1c(N=Nc2ccccc2Cl)c(-c2ccccc2)nn1C(=S)S        inactive
 2  COc1ccc(Oc2ccc(C(=O)C(CN(C)C)CN(C)C)cc2)cc1        inactive
 3  Cc1c(-c2ccccc2)ccnc1/C=N/NC(=S)Nc1ccc(N(C)C)cc1        inactive
 4          O=C(O)c1ccc2c(O)c3ccccc3c(O)c2c1        inactive
 5  COc1cccc2c1C(=O)c1c(O)c3c(c(O)c1C2=O)CC(O)(C(=O)CO)CC3OC1CC(N)C(I)C(C)O1 (centres undefined)          active
 6  CC(=O)O[C@@H]1[C@@H](O)[C@H]2O[C@@H]3C=C(C)CC[C@]3(CO)[C@]1(C)[C@@]21CO1        inactive
 7  O=C1c2c(Br)c(Br)c(Br)c(Br)c2C(=O)N1c1nccs1        inactive
 8  CN1CCCC(C(=O)OCC(=O)C2(O)CCC3C4CCC5=CC(=O)CCC5(C)C4C(O)CC32C)C1 (centres undefined)        inactive
 9  C=CCN1/C(=C/C=C\c2sc3ccccc3[n+]2CC=C)Sc2ccccc21          active
10                           CCN(CC)COC(=S)S        inactive
11           COC(=O)/C=C1/OC(c2ccccc2)=CC1=O        inactive
12  O=C(NC(Cc1ccccc1)C(=O)O)c1ccncc1 (centres undefined)        inactive
13      O=C(N/N=C/c1cc(Cl)cc(Cl)c1O)c1ccccc1        inactive
14  CCCCCCCCCCCCCC/C(=C/OCC[N+](C)(C)C)OC(C)=O (tested in a mixture with another compound)          active
15      ClC(Cl)(Cl)C1=CC2c3ccccc3C1c1ccccc12        inactive
16  Cc1ccc(C)c(N(c2ccccc2[N+](=O)[O-])S(C)(=O)=O)c1        inactive
17  CC(NNC(=S)N1CCCC1)c1cc2ccccc2cn1 (centres undefined)        inactive
18          CC(/C=C/c1ccco1)=N\NC(=S)NCC(C)C        inactive
19   Cc1nc2ccc(N=Nc3c(O)ccc4ccccc34)cc2[nH]1        inactive
20             C=CCNC(=S)N/N=C(\CCC)c1ccccn1          active
21  O=c1cccccc1[O-].O=c1cccccc1[O-].O=c1cccccc1[O-].[Nd+3]        inactive
22  COC(=O)C1C(=O)CC(c2ccccc2)C1c1ccccc1 (centres undefined)        inactive
23        CN(C)C(=O)c1cc(Cl)cc(-c2ccccc2)c1O        inactive
24  COc1cccc2c1C(=O)c1c(O)c3c(c(O)c1C2=O)CC(O)(C(C)=O)CC3OC1OC(COC(C)=O)C(OC(C)=O)C(OC(C)=O)C1OC(C)=O (centres undefined)        inactive
25  O=C1NC(c2ccccc2)(c2ccccc2)C(=O)N1SC(Cl)(Cl)Cl          active
26  N#Cc1c(-c2ccc(Cl)c(Cl)c2)c(-c2ccc(Cl)c(Cl)c2)nn(CCO)c1=O        inactive
27    O=C1Nc2c(Cl)cc(Cl)cc2/C1=N/N=C/c1ccco1        inactive
28          OCN(CO)c1ccc2c(c1)Cc1cc(F)ccc1-2        inactive
29  COc1ccc(/C=C2/C(=O)NC3SC=C(c4cccc([N+](=O)[O-])c4)N23)cc1 (centres undefined)        inactive
30                 CC(C)OC(=S)SSSC(=S)OC(C)C        inactive
31    Cn1c2c(c3nc(N)nc(N)c3c1=O)CCc1ccccc1-2        inactive
32  C=CCN1CCC(OC(=O)C(O)(/C=C\CC)C2CCCC2)CC1 (centres undefined)        inactive
33  COc1ccc(C(c2c(O)c3ccccc3oc2=O)N2CCOCC2)cc1 (centres undefined)        inactive
34  CCCCCCCCCCCCNC(=O)c1ccc[n+](Cc2ccc(Cl)c(Cl)c2)c1          active
35  Oc1cc2c(cc1C(Nc1ncccn1)c1ccc(F)cc1)OCO2 (centres undefined)        inactive
36  CN1c2ccccc2C(c2ccccc2)c2ccc(Nc3ccccc3)cc21 (centres undefined)          active
37  Nc1ccccc1SC(/C=C/NNC1=NC(c2ccccc2)C(c2ccccc2)=NN1)c1ccccc1 (centres undefined)        inactive
38             Cc1ccc([S@](=O)c2occc2C=O)cc1        inactive
39                O=C(OCc1ccccc1)c1ccc(O)cc1        inactive
40  Cc1cc2c(C(C)C)c(O)c(O)c3coc(/c1=c1/c(C)cc4c(C(C)C)c(=O)c(=O)c5coc1c45)c32        inactive
41  COc1cc(C2C(C(=O)O)=C(C)Oc3cc4c(cc32)OCO4)cc(OC)c1OC (centres undefined)          active
42  Cc1ccc(S(=O)(=O)OCCCCOS(=O)(=O)c2ccc(C)cc2)cc1        inactive
43  O=C(O)c1c2c(cc3c1CC1(Cc4ccccc4C1=O)C3)CCC2 (centres undefined)        inactive
